- TESTED ON: full-length beta-catenin (Axin site) (Homo sapiens)
- Construct: 15 nM full-length beta-catenin, 20 nM FITC labeled peptide in buffer
- Sequence (P35222 whole entry): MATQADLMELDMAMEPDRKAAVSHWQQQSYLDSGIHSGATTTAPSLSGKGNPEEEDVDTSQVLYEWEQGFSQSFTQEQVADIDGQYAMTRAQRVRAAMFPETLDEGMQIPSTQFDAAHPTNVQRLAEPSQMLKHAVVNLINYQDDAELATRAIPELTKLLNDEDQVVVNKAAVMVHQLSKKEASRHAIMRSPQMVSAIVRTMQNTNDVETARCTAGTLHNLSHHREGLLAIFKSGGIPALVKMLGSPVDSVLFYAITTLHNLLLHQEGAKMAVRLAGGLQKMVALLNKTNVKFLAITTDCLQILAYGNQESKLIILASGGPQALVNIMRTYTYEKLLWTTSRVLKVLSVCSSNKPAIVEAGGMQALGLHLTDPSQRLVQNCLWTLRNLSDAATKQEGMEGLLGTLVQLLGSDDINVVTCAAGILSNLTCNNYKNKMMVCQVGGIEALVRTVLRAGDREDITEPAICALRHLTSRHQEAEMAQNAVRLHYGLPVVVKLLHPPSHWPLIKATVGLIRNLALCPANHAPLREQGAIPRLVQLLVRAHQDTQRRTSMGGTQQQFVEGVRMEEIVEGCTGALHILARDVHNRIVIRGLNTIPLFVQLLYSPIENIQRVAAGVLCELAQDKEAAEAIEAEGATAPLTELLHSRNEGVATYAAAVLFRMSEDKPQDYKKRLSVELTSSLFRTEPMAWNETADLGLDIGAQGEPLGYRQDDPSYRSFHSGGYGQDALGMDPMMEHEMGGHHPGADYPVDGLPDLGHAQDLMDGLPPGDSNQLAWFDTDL
- ASSAY NOTES: Competition fluorescence polarization assay (Axin site probe)
- Type: binding
- DETAILS: competition fluorescence polarization, Table 2; read-out: in vitro FP EC50
pEC50: −log10 of the molar value.
Exercise: state measured pEC50 for each of the compounds provided.

CC[C@H](C)[C@@H]1NC(=O)[C@](C)(NC(=O)[C@H](C)NC(=O)[C@@H]2CCCN2C(C)=O)CCCCCCC=CCOC(=O)N2CC[C@@](C(=O)N[C@@H](CCCNC(=N)N)C(=O)N[C@H](C(=O)N[C@@H](Cc3c[nH]c4ccccc34)C(N)=O)C(C)C)(C2)NC(=O)[C@H](C(C)C)NC(=O)[C@H](Cc2c[nH]cn2)NC(=O)[C@H](C)NC(=O)[C@H](CC(=O)O)NC(=O)[C@H](CC(C)C)NC1=O [FP0025c, Ac-P-A-R8-I-L-D-A-H-V-MB-R-V-W-NH2] = > 7.00
CC[C@H](C)[C@@H]1NC(=O)[C@H](Cc2ccccn2)NC(=O)[C@H](C)NC(=O)[C@H](CC(=O)O)NC(=O)[C@H](CC(C)C)NC(=O)[C@H]([C@@H](C)CC)NC(=O)[C@](C)(NC(=O)[C@H](C)NC(C)=O)CCCCCCC=CCOC(=O)N2CC[C@@](C(=O)N[C@@H](Cc3cccnc3)C(=O)N[C@H](C(=O)N[C@@H](Cc3c[nH]c4ccccc34)C(N)=O)C(C)C)(C2)NC1=O (single isomer, unassigned) [FP0573c Isomer 1, Ac-A-R8-I-L-D-A-2pyr-I-MB-3pyr-V-W-NH2] = < 5.30
CC[C@H](C)[C@@H]1NC(=O)[C@@](C)(NC(=O)[C@H](CCC(N)=O)NC(=O)[C@@H]2CCCN2C(C)=O)CCCCCC=CCN2CC(C(=O)N[C@@H](Cc3c[nH]cn3)C(=O)N[C@H](C(=O)N[C@@H](CCCNC(=N)N)C(=O)N[C@@H](CCCNC(=N)N)C(=O)N[C@H](C(=O)N[C@@H](Cc3c[nH]c4ccccc34)C(=O)N[C@@H](CCCNC(=N)N)C(N)=O)C(C)C)C(C)C)(C2)NC(=O)[C@H](CC(=O)O)NC(=O)[C@H](CC(C)C)NC1=O (single isomer, unassigned) [FP0738a, Ac-P-Q-S7-I-L-D-MA-H-V-R-R-V-W-R-NH2] = 6.30 to 7.00
CC[C@H](C)[C@@H]1NC(=O)[C@](C)(NC(=O)[C@H](CCC(N)=O)NC(=O)[C@@H]2CCCN2C(C)=O)CCCC=CCN(C)CCC[C@](C)(C(=O)N[C@@H](Cc2c[nH]cn2)C(=O)N[C@H](C(=O)N[C@@H](CCCNC(=N)N)C(=O)N[C@@H](CCCNC(=N)N)C(=O)N[C@H](C(=O)N[C@@H](Cc2c[nH]c3ccccc23)C(=O)N[C@@H](CCCNC(=N)N)C(N)=O)C(C)C)C(C)C)NC(=O)[C@H](CC(=O)O)NC(=O)[C@H](CC(C)C)NC1=O (single isomer, unassigned) [FP0777a, Ac-P-Q-R5-I-L-D-MI-H-V-R-R-V-W-R-NH2] = 5.30 to 6.30

Here's the next entry for you.
Which pEC50 is reported with full-length beta-catenin (Axin site) (Homo sapiens) for this entry: CC[C@H](C)[C@@H]1NC(=O)[C@H](Cc2c[nH]cn2)NC(=O)[C@H](C)NC(=O)[C@H](CC(=O)O)NC(=O)[C@H](CC(C)C)NC(=O)[C@H]([C@@H](C)CC)NC(=O)[C@](C)(NC(=O)[C@H](C)NC(C)=O)CCCCCCC=CCOC(=O)N2CC[C@@](C(=O)N[C@@H](CO)C(=O)N[C@H](C(=O)N[C@@H](Cc3c[nH]c4ccccc34)C(N)=O)C(C)C)(C2)NC1=O [FP0542c, Ac-A-R8-I-L-D-A-H-I-MB-S-V-W-NH2] ?
5.30 to 6.30
